Data provenance: the supplement of paper PMC6555819

Parameter PBM binding z-score: see the listing below.
Test system: THRa homodimer (NR concentration 90 nM)
Assay: PBM binding z-score (relative to random genomic background probes); higher = stronger binding; sequences stand for … in GC…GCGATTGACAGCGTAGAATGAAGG

macromolecule-sequence | value-measured
TAGCCTAGGTCAGATCGGGCTAGTATACGCTATA | -0.538
ATCTCTAGGTAAAGTTCAGTGGAAGATCGATAGA | 0.319
TCATATAGGTAAAGGGGAAAGTCGAACGATATGA | -0.0232
TCTAGTTGGTCAAAGGTCACACTCTCGAAATGCG | 2.1
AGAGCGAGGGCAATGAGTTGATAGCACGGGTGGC | -0.514
TCATATTGGTAATACAGGTGAAAGTCGGCATCTA | 0.437
CCGACTGGGGCAAAGTTTACCATACTCAGTACGA | -0.108
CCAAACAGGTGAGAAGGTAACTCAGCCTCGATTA | 0.0192
GGAACGAGGGCAAGTAGATAGCAGAGTTTGATGG | -0.115
TCTTGTGGATCAACAGGAGGTTAAGAAAGATCGA | -0.626

Prompt line: // returns reported PBM binding z-score for input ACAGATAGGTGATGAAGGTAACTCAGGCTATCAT
Response line: -0.19

Prompt line: Report PBM binding z-score for TCAGACAGGTGAACGTAACTCAGGTACGCAGTCG please.
Response line: 0.264

Prompt line: Suppose we examine the sequence ACAACGAGGGCAATGAGTTGATAGCACGGGTGGC ; what PBM binding z-score value has been reported?
Response line: -0.343

Prompt line: Sample CCTCGTTGGTCAGGAGGTCACACACCGGATATGA — what was its PBM binding z-score?
Response line: 2.26

Prompt line: Reported PBM binding z-score, sequence TCTATTGGTTGATTAGGGCAACCGAAACAGCGGA : ____
Response line: 0.352

---

Test system: THRa homodimer (NR concentration 90 nM)
Experiment: PBM binding z-score (relative to random genomic background probes); higher = stronger binding; sequences stand for … in GC…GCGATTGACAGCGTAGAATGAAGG
So basically every entry gets a class from its PBM binding z-score, ranges being bottom bin: < -0.08; middle bin: ≥ -0.08 and < 0.7; top bin: ≥ 0.7

macromolecule-sequence | classification
TCTTGTAGATCAAGCAGGTCAAGAAAGCCTGAGT | middle bin
CCTTACGGGTCACTCCTGGTTATAGCATCGGAGT | middle bin
TTACCAAGGTGAAGGTCGTTAATCCCTCTGTAGA | top bin
AGAATGCGGTTACCAAAGATCAGGGAAACGCTTG | bottom bin
CCGACTGGGGCAAAGGTTAACATACTCAGTACGA | bottom bin
CCGATTAGGTTATGGGGCATTCAGGCAACGGTGA | middle bin

Prompt line: Band of TAGCCTAGGTCCTGGGCCAGTATACCACGCGAAC ?
Response line: bottom bin

Prompt line: Kindly state the category for this sequence: ACTAGTTGGTCAGCTGAGGTTACACACAATTCGG
Response line: top bin

Prompt line: Given TCTAATTGGTCAAAGGTCACACACTCGAAATGCG , name the class its PBM binding z-score places it in.
Response line: top bin

Prompt line: Band assignment needed for CCGAATGGGGCAGAAAGGTTACCATACCATCCGG please.
Response line: bottom bin

Prompt line: # classify by PBM binding z-score band: CCTCGGAGGACAGAAGGTTAGAGCTGTCCGCTTT
Response line: bottom bin

Prompt line: Determine which band this sequence sits in: CCTAGCAGGCCAATCTGGGTCACTCCAGGCTTGA
Response line: middle bin

Prompt line: Class label required: TGAATGAGGTTACAAGATCAGGGAACGTTGCAAA
Response line: middle bin

Prompt line: Which of the defined bands does the recorded PBM binding z-score of TATACAGGGTGAAAGGCCAGAGTACGAATGTCGA sit within?
Response line: bottom bin

---

Tested on: RARb homodimer (NR concentration 270 nM)
Experiment: PBM binding z-score (relative to random genomic background probes); higher = stronger binding; sequences stand for … in GC…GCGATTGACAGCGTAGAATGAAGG
quantity-name: PBM binding z-score
Could you respond with only the numeric value?

macromolecule-sequence | PBM binding z-score
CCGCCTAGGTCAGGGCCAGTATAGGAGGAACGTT | 2.62
CCTCGGAGGGCAGAAGGTCAGAGCTGTCCGCTTT | 3.76
TCTATTAGTTGATTAGGGCAATCGAAACAGCGGA | 0.402
GCAGACAGGTGAAACGCAGGTACCTCAGGGTGGC | -0.353
CCTAGCAGGCCAATCTGGGTCACTCGAGGCTTGA | 2.3
AGAATGAGGTTATTGAGATCAGGGAATTGCGGTC | 1.07
GCCGACAGGTGAAACGCAGGTAACTCAGGGTGGC | -0.0352
AGTCAAAGTTCACTAGGTAACGTTAGATTCAGCT | 3.56

Prompt line: State the recorded PBM binding z-score for this entry: CTCGAAAGGTCGGCTGAGGTGAGTATACGGATAA
Response line: 2.61

Prompt line: Given the sequence ACTCGGAGGACAACGGTCAGAGCTACGCCAGTGA , what is its reported PBM binding z-score?
Response line: 1.51

Prompt line: Could you tell me which PBM binding z-score is on file for TCATATAGGTATAAGGTGAAAGTCGGTGTGGTAA ?
Response line: 1.17

Prompt line: Quick check: PBM binding z-score of TGTCAAAGTCCAAAGGTAACGTAAGTATCCACAC ?
Response line: 1.08

Prompt line: May I ask what PBM binding z-score has been recorded for CCTGCTAGGTCATGGTCAGCCAATCTACAGTATG ?
Response line: 3.14

Prompt line: Data request, read-out PBM binding z-score, for CGTACTAGGTCATCCAGGACAGTGAATACATTGA
Response line: 3.35

Prompt line: Recorded PBM binding z-score of TCTATGAGTTGATTAGGGCAACCGAAACAGCGGA , please.
Response line: 0.553

Prompt line: I would be grateful if you could share the reported PBM binding z-score for ATCTCTAGGTATGACTCAGTTCAGTGAAGAACGC .
Response line: 0.676

Prompt line: If you can, please state the reported PBM binding z-score value of GCTGCTAGGTAAACTGATGGTCAGCTAAAGCTCG .
Response line: -0.0474

Prompt line: Give its PBM binding z-score value. Item: TTACCAAGGTGAAAGGTCGTGGATGCACGCCTTG
Response line: 2.98

Prompt line: Using the record for ATATGTAGGTTACATCCGGGGCATTCAGGCTATG , report its PBM binding z-score.
Response line: 1.23

Prompt line: Please report the recorded PBM binding z-score for TCTGCTAGGGCAACGATGGTCAGCTAATCTGCTA .
Response line: 0.762

Prompt line: Which PBM binding z-score reading was recorded for the sequence CTCGGAAGGTCGTGCTCAGGTGAGTATACCAAAC ?
Response line: 1.95

Prompt line: Which PBM binding z-score value belongs to ATCTCTAGGTCAAGTTCAGTGAAAGATCGATAGA ?
Response line: 3.89

Prompt line: What value of PBM binding z-score has been recorded for this entry: CCGAGTACGTTATGGGGCATTCAGGCAACGGTGA
Response line: 0.358

Prompt line: Which PBM binding z-score reading was recorded for the sequence AGAATGAGGTTAGTAAGATCAGGGAATTGCGGTC ?
Response line: 0.918

---

System: PPARg DBDmut IVT, anti-PPARg (DBD mutation: PPARg1 K132A/R137A, NR concentration 270 nM)
Experiment: PBM binding z-score (relative to random genomic background probes); higher = stronger binding; sequences stand for … in GC…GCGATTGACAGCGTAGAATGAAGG
In this section we review reported PBM binding z-score values for a set of sequences.
# answer = number (no unit)

Prompt line: What does the record list as PBM binding z-score for AGTCGAAGTTCATCTAGGTAACGTAAGATATGCT ?
Response line: 0.713

Prompt line: I would be grateful if you could share the reported PBM binding z-score for CCTACTGGGCCATCCGGTCATTGATATCAACGTT .
Response line: -0.431

Prompt line: Quick one: PBM binding z-score of AGTCAAAGTTCAGGACAAGGTAACGTAAAGCACG ?
Response line: 0.792

Prompt line: What does the data say about its PBM binding z-score? Entry: TCTTCTAGATCAAGCAGGTTAAGAAAGCCTGAGT
Response line: 0.698

Prompt line: # get_value(readout='PBM binding z-score', item= TCGAGAAGGTTAGTCGGGGCATTCAGCCAACATA )
Response line: -0.49

---

System: PPARg:RXRa (NR concentration 180 nM, RXRa partner concentration 90 nM)
Test: PBM binding z-score (relative to random genomic background probes); higher = stronger binding; sequences stand for … in GC…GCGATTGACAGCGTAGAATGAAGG
quantity-name: PBM binding z-score
Give the value as a plain number.

macromolecule-sequence | target-entity | quantity-name | value-measured
ATCTCTAGGGAACAAGTTCAGTGAAAGAGAGGAC | PPARg:RXRa (NR concentration 180 nM, RXRa partner concentration 90 nM) | PBM binding z-score | 0.723
CTCGAAAGGTCGGTTGAGATGAGTATACGGATAA | PPARg:RXRa (NR concentration 180 nM, RXRa partner concentration 90 nM) | PBM binding z-score | 0.617
GGAACGAGGGCAAAGTTGACAGCATCTGTCGACG | PPARg:RXRa (NR concentration 180 nM, RXRa partner concentration 90 nM) | PBM binding z-score | 8.22

Prompt line: Sample CGTCCAAGGTCAGCAGATCAGTGAAAGCGACGTG — what was its PBM binding z-score?
Response line: 2.5

Prompt line: Tell me the measured PBM binding z-score of TCTTGTAGATCAACAGGAGGTTACGAAAGATCGA , please.
Response line: 0.26

Prompt line: Need PBM binding z-score of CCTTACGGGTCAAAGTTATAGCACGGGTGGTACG , thanks.
Response line: 5.04

Prompt line: # get_value(readout='PBM binding z-score', item= CAAACTAGGTCACATAGGTCAAAGTCCGTGCGTA )
Response line: 9.47

Prompt line: Could you share which PBM binding z-score value was measured for TCTATTAGTTGATTAGGGCCACCGAAACAGCGGA ?
Response line: -0.0833

Prompt line: Which PBM binding z-score value belongs to TCTTGTAGATCAAGCAGGTTAAGTAAGCCTGAGT ?
Response line: -0.618
